- System: Streptococcus pyogenes
- Assay remarks: Antibacterial activity against erythromycin-susceptible Streptococcus pyogenes clinical isolate by broth microdilution method
- Assay type: functional
# MIC annotations
Quick reminder: number only, in µg/mL, skip the unit.

Answered cases to consult:
[[record]]
record_smiles = "CC[C@H]1OC(=O)[C@H](C)[C@@H](O)[C@H](C)[C@@H](O[C@@H]2O[C@H](C)C[C@H](N(C)C)[C@H]2OC(=O)Nc2cccc(OC)c2)[C@](C)(O)C[C@@H](C)CN(C)[C@H](C)[C@H]2OC(=O)O[C@@]21C"
reported_value = 2

[[record]]
record_smiles = "CC[C@H]1OC(=O)[C@H](C)[C@@H](OC(=O)n2ccnc2)[C@H](C)[C@@H](O[C@@H]2O[C@H](C)C[C@H](N(C)C)[C@H]2OC(C)=O)[C@](C)(O)C[C@@H](C)CN(C)[C@H](C)[C@H]2OC(=O)O[C@@]21C"
reported_value = 8

[[record]]
record_smiles = "CC[C@H]1OC(=O)[C@H](C)[C@@H](OC(=O)Nc2cccc(C)c2)[C@H](C)[C@@H](O[C@@H]2O[C@H](C)C[C@H](N(C)C)[C@H]2O)[C@](C)(O)C[C@@H](C)CN(C)[C@H](C)[C@@H](OC(=O)NCc2ccccc2Cl)[C@]1(C)O"
reported_value = 0.03

[[record]]
record_smiles = "CCCCCCNC(=O)O[C@@H]1[C@@H](C)N(C)C[C@H](C)C[C@@](C)(O)[C@H](O[C@@H]2O[C@H](C)C[C@H](N(C)C)[C@H]2O)[C@@H](C)[C@H](OC(=O)Nc2ccc(OC)cc2)[C@@H](C)C(=O)O[C@H](CC)[C@@]1(C)O"
reported_value = 1


Input line: Return the recorded MIC value; entry: `CCCCCCNC(=O)O[C@H]1[C@H](C)[C@@H](O[C@@H]2O[C@H](C)C[C@H](N(C)C)[C@H]2OC(C)=O)[C@](C)(O)C[C@@H](C)CN(C)[C@H](C)[C@H]2OC(=O)O[C@]2(C)[C@@H](CC)OC(=O)[C@@H]1C`
Output line: 4
